System: HT29 colon
PROCEDURE DETAILS: NCI-60 one-dose screen, 48 h
STATED CONDITIONS: 10 µM
About 83,000 compounds went through this panel and 20% of them were active in at least one assay; those are over-represented in the sample as a whole. Activity calls are given as the source filed them. The calls were made as follows: active = growth percent below 10; inactive = the rest.
Output constraint: value belongs to active, inactive

Prompt: Dear colleague, could you share the recorded outcome for `C=CCn1c(SCC(=O)Nc2ccc(C(=O)/C=C/c3cc(OC)c(OC)c(OC)c3)cc2)nnc1-c1cc(-c2ccc(Cl)cc2)nc2ccccc12` when you have a moment?
Completion: inactive

====

System: RXF 393 renal
PROCEDURE DETAILS: NCI-60 one-dose screen, 48 h
STATED CONDITIONS: 10 µM
Protocol: Cells are grown in 96 well plates and exposed to the test compound for 48 hours. Compounds are tested at a single concentration, which is 10^-5 M for most compounds. The reported endpoint is percent growth (GI% or GIPRCNT), where numbers from 0 - 100% represent growth inhibition, and numbers from -100% - 0 represent cell death. For example, a value of 40 represents 60% growth inhibition. A value of 0 means no net growth occurred over the course of the experiment. […]
Compounds without any hit were thinned out: in the full panel of roughly 83,000, 20% have a hit. Active and inactive are the calls of the source. Rule for the calls: active = growth percent below 10; inactive = the rest.
Output constraint: value belongs to 1.0 = active, 0.0 = inactive

COMPOUND	ASSAYED TARGET	QUALITATIVE LABEL
C[C@@H](O)[C@H]1C(=O)N2C(C(=O)O)=C(SC3CN[C@H](C(=O)N(C)C)C3)[C@H](C)[C@H]12 (stereo partly specified)	RXF 393 renal	0.0

Prompt: Dear colleague, could you share the recorded outcome for `COc1ccc(-c2nn(-c3cccc(Cl)c3)cc2-c2c(C#N)c(=O)n3[nH]c(-c4ccc(C)cc4)nc3c2C#N)cc1` when you have a moment?
Completion: 0.0

Prompt: Dear colleague, could you share the recorded outcome for `C=CCn1c(SCC(=O)Nc2ccc(C(=O)/C=C/c3ccc(OC)cc3)cc2)nnc1-c1ccc(OC)c(OC)c1` when you have a moment?
Completion: 0.0

Prompt: Dear colleague, could you share the recorded outcome for `CC1=NN(C(=O)c2nn(-c3ccc(Cl)cc3)cc2O)C(=O)C1` when you have a moment?
Completion: 0.0

Prompt: Dear colleague, could you share the recorded outcome for `COc1ccc(-c2cc(-c3ccc(OC)c(OC)c3)nc(SCCCC(=O)NO)n2)cc1` when you have a moment?
Completion: 1.0

Prompt: Dear colleague, could you share the recorded outcome for COc1cc2ncnc(NC3CCC(O)CC3)c2cc1OC (stereo unspecified) when you have a moment?
Completion: 0.0

====

System: U251 CNS
PROCEDURE DETAILS: NCI-60 one-dose screen, 48 h (100 = growth as untreated, 0 = no growth, -100 = all killed)
STATED CONDITIONS: 10 µM
About 83,000 compounds went through this panel and 20% of them were active in at least one assay; those are over-represented in the sample as a whole.
MEASUREMENT LABEL: growth (%)
// return numeric value only (unit: %, not printed)

// field: growth; key: `CN1CCc2c(sc3nc4n(-c5ccc(Cl)cc5)c(=O)[nH]n4c(=O)c23)C1` ; value = 98.7

// field: growth; key: `C=CCSC(CC)(CC)C(=O)NC` ; value = 101

// field: growth; key: COc1ccc(C2CC(c3cc(OC)c(OC)c(OC)c3)=NN2)cc1 (stereo not given) ; value = 26.2

// field: growth; key: `C=CCn1c(SCC(=O)Nc2ccc(C(=O)/C=C/c3ccc(OC)cc3)cc2)nnc1-c1ccc(OC)c(OC)c1` ; value = 87.4

// field: growth; key: `COc1cc(C(=O)n2nc(-c3cc(OC)c(OC)c(OC)c3)nc2N)cc(OC)c1OC` ; value = 97.3
